test: Plasma pharmacokinetics of paracetamol, paracetamol glucuronide and paracetamol sulphate in rats (HPLC-UV, non-compartmental); type: in vivo, Wistar rats; details: male, Wistar, rat, plasma, po, 100 mg/kg, paracetamol 100 mg/kg p.o. + lapatinib 100 mg/kg p.o. (IL + PA), plasma, M ± SD, read-out: MRT0-t
TEST READOUT: MRT last (h)

* CC(=O)Nc1ccc(O)cc1 | 2.88

====

assay: Plasma pharmacokinetics of paracetamol, paracetamol glucuronide and paracetamol sulphate in rats (HPLC-UV, non-compartmental); type: in vivo, Wistar rats; conditions: male, Wistar, rat, plasma, po, 100 mg/kg, paracetamol 100 mg/kg p.o. alone (IIIPA), M ± SD
TEST READOUT: k el (s⁻¹)

• CC(=O)Nc1ccc(O)cc1 = 9.17e-05

====

assay: Plasma pharmacokinetics of paracetamol, paracetamol glucuronide and paracetamol sulphate in rats (HPLC-UV, non-compartmental); assay type: in vivo, Wistar rats; settings: male, Wistar, rat, plasma, po, 100 mg/kg, paracetamol 100 mg/kg p.o. alone (IIIPA), plasma, M ± SD, read-out: AUC0-t
TEST READOUT: AUC0-t

- CC(=O)Nc1ccc(O)cc1: 80500 ng·h/mL

====

assay: Plasma pharmacokinetics of lapatinib in rats (HPLC-MS/MS, non-compartmental); format: in vivo, Wistar rats; conditions: male, Wistar, rat, plasma, po, 100 mg/kg, rats, lapatinib 100 mg/kg p.o. alone (IIL), M ± SD
TEST READOUT: Cmax (µg/mL)

• CS(=O)(=O)CCNCc1ccc(-c2ccc3ncnc(Nc4ccc(OCc5cccc(F)c5)c(Cl)c4)c3c2)o1 = 0.787

====

test: Plasma pharmacokinetics of lapatinib in rats (HPLC-MS/MS, non-compartmental); format: in vivo, Wistar rats; details: male, Wistar, rat, plasma, po, 100 mg/kg, rats, lapatinib 100 mg/kg p.o. + paracetamol 100 mg/kg p.o. (IL + PA), plasma, M ± SD
TEST READOUT: AUC(0-inf)

• CS(=O)(=O)CCNCc1ccc(-c2ccc3ncnc(Nc4ccc(OCc5cccc(F)c5)c(Cl)c4)c3c2)o1 = 39500 ng·h/mL

====

test: Plasma pharmacokinetics of paracetamol, paracetamol glucuronide and paracetamol sulphate in rats (HPLC-UV, non-compartmental); type: in vivo, Wistar rats; details: male, Wistar, rat, plasma, po, 100 mg/kg, paracetamol 100 mg/kg p.o. + lapatinib 100 mg/kg p.o. (IL + PA), plasma, M ± SD, read-out: Cmax
TEST READOUT: Cmax

* CC(=O)Nc1ccc(O)cc1 [paracetamol, Paracetamol] | 10.9 µg/mL

====

experiment: Plasma pharmacokinetics of lapatinib in rats (HPLC-MS/MS, non-compartmental); type: in vivo, Wistar rats; conditions: male, Wistar, rat, plasma, po, 100 mg/kg, rats, lapatinib 100 mg/kg p.o. + paracetamol 100 mg/kg p.o. (IL + PA), plasma, M ± SD
TEST READOUT: Vd/F (L)

• CS(=O)(=O)CCNCc1ccc(-c2ccc3ncnc(Nc4ccc(OCc5cccc(F)c5)c(Cl)c4)c3c2)o1 = 17.5

====

experiment: Plasma pharmacokinetics of paracetamol, paracetamol glucuronide and paracetamol sulphate in rats (HPLC-UV, non-compartmental); format: in vivo, Wistar rats; details: male, Wistar, rat, plasma, po, 100 mg/kg, paracetamol 100 mg/kg p.o. + lapatinib 100 mg/kg p.o. (IL + PA), plasma, M ± SD, read-out: AUC0-t
TEST READOUT: AUC0-t (ng·h/mL)

- CC(=O)Nc1ccc(O)cc1: 34800
